Tested on: Mus musculus
Test Details: In vivo immunosuppression in murine models by splenic T-cell proliferation assay after peroral administration
Assay type: functional
Experimental Setup: po
Attribute Measured: ED50 (mg/kg)
Give the quantity in mg/kg, number only.

As a guide, the following entries are already answered.
Compound | ED50 / mg/kg
CC[C@@H]1/C=C(\C)C[C@H](C)C[C@H](OC)[C@H]2O[C@@](O)(C(=O)C(=O)N3CCCC[C@H]3C(=O)O[C@H](/C(C)=C/C3CC[C@@H](OC[C@@H](O)c4cc(C)cc(C)c4)[C@H](OC)C3)[C@H](C)[C@H](O)CC1=O)[C@H](C)C[C@@H]2OC (stereo partly drawn) | 4.5
CC[C@@H]1/C=C(\C)C[C@H](C)C[C@H](OC)[C@H]2O[C@@](O)(C(=O)C(=O)N3CCCC[C@H]3C(=O)O[C@H](/C(C)=C/C3CC[C@@H](OC[C@H](O)c4cc(C)cc(C)c4)[C@H](OC)C3)[C@H](C)[C@H](O)CC1=O)[C@H](C)C[C@@H]2OC (stereo partly drawn) | 4.8

Query compound follows.
Ask | Form field: reported ED50 of CC[C@@H]1/C=C(\C)C[C@H](C)C[C@H](OC)[C@H]2O[C@@](O)(C(=O)C(=O)N3CCCC[C@H]3C(=O)O[C@H](/C(C)=C/C3CC[C@@H](OC[C@@H](O)c4ccc(F)c(F)c4)[C@H](OC)C3)[C@H](C)[C@H](O)CC1=O)[C@H](C)C[C@@H]2OC (stereo partly drawn)
Reply | 2.8

---

Entries and their measured EC50 follow.
Measured Target: Peptidyl-prolyl cis-trans isomerase FKBP1A (Homo sapiens)
Sequence (P62942 whole entry): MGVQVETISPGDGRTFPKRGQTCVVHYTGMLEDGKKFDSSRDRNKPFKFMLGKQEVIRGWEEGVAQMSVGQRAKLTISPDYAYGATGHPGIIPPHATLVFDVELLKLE
Test Details: Effective concentration against FK506 binding protein 12 using [3H]-dihydro FK-506
Give the quantity in µM, number only.

As a guide, the following entries are already answered.
Compound | Measured Target | Endpoint Unit | EC50
CC[C@@H]1/C=C(\C)C[C@H](C)C[C@H](OC)[C@H]2O[C@@](O)(C(=O)C(=O)N3CCCC[C@H]3C(=O)O[C@H](/C(C)=C/C3CC[C@@H](OC[C@H](O)c4ccc5ccccc5c4)[C@H](OC)C3)[C@H](C)[C@H](O)CC1=O)[C@H](C)C[C@@H]2OC (some centres undefined) | Peptidyl-prolyl cis-trans isomerase FKBP1A (Homo sapiens) | µM | 0.018
CC[C@@H]1/C=C(\C)C[C@H](C)C[C@H](OC)[C@H]2O[C@@](O)(C(=O)C(=O)N3CCCC[C@H]3C(=O)O[C@H](/C(C)=C/C3CC[C@@H](OC[C@H](O)c4ccc(F)c(F)c4)[C@H](OC)C3)[C@H](C)[C@H](O)CC1=O)[C@H](C)C[C@@H]2OC (some centres undefined) | Peptidyl-prolyl cis-trans isomerase FKBP1A (Homo sapiens) | µM | 0.0136
CC[C@@H]1/C=C(\C)C[C@H](C)C[C@H](OC)[C@H]2O[C@@](O)(C(=O)C(=O)N3CCCC[C@H]3C(=O)O[C@H](/C(C)=C/C3CC[C@@H](OC[C@@H](O)c4cc(C)cc(C)c4)[C@H](OC)C3)[C@H](C)[C@H](O)CC1=O)[C@H](C)C[C@@H]2OC (some centres undefined) | Peptidyl-prolyl cis-trans isomerase FKBP1A (Homo sapiens) | µM | 0.0075

Ask | Form field: reported EC50 of CC[C@@H]1/C=C(\C)C[C@H](C)C[C@H](OC)[C@H]2O[C@@](O)(C(=O)C(=O)N3CCCC[C@H]3C(=O)O[C@H](/C(C)=C/C3CC[C@@H](OC[C@@H](O)c4ccc5ccccc5c4)[C@H](OC)C3)[C@H](C)[C@H](O)CC1=O)[C@H](C)C[C@@H]2OC (some centres undefined)
Reply | 0.0211

---

Entries and their measured ED50 follow.
System: Mus musculus
Test Details: In vivo immunosuppression in murine models by splenic T-cell proliferation assay after peroral administration
Assay type: functional
Experimental Setup: po
Give the quantity in mg/kg, number only.

Compound | Endpoint Unit | ED50
CC[C@@H]1/C=C(\C)C[C@H](C)C[C@H](OC)[C@H]2O[C@@](O)(C(=O)C(=O)N3CCCC[C@H]3C(=O)O[C@H](/C(C)=C/C3CC[C@@H](OC[C@@H](O)c4cc5ccccc5s4)[C@H](OC)C3)[C@H](C)[C@H](O)CC1=O)[C@H](C)C[C@@H]2OC (some centres undefined) | mg/kg | 6.4
CC[C@@H]1/C=C(\C)C[C@H](C)C[C@H](OC)[C@H]2O[C@@](O)(C(=O)C(=O)N3CCCC[C@H]3C(=O)O[C@H](/C(C)=C/C3CC[C@@H](OC[C@H](O)c4ccc5ccccc5c4)[C@H](OC)C3)[C@H](C)[C@H](O)CC1=O)[C@H](C)C[C@@H]2OC (some centres undefined) | mg/kg | 3.4
CC[C@@H]1/C=C(\C)C[C@H](C)C[C@H](OC)[C@H]2O[C@@](O)(C(=O)C(=O)N3CCCC[C@H]3C(=O)O[C@H](/C(C)=C/C3CC[C@@H](OC[C@H](O)c4cccc(C(F)(F)F)c4)[C@H](OC)C3)[C@H](C)[C@H](O)CC1=O)[C@H](C)C[C@@H]2OC (some centres undefined) | mg/kg | 5

Query compound follows.
Ask | Form field: reported ED50 of CC[C@@H]1/C=C(\C)C[C@H](C)C[C@H](OC)[C@H]2O[C@@](O)(C(=O)C(=O)N3CCCC[C@H]3C(=O)O[C@H](/C(C)=C/C3CC[C@@H](OC[C@H](O)c4ccc(F)c(F)c4)[C@H](OC)C3)[C@H](C)[C@H](O)CC1=O)[C@H](C)C[C@@H]2OC (some centres undefined)
Reply | 3.9

This collection of values is drawn from ChEMBL document CHEMBL1131808.
